Target: T1, human DSG2 on cells (HeLa cells; polarized T84 cells) (human, UniProt Q14126 50-1118)
T1 construct: whole, on cells; also called HeLa cells, which express DSG2
T1 sequence: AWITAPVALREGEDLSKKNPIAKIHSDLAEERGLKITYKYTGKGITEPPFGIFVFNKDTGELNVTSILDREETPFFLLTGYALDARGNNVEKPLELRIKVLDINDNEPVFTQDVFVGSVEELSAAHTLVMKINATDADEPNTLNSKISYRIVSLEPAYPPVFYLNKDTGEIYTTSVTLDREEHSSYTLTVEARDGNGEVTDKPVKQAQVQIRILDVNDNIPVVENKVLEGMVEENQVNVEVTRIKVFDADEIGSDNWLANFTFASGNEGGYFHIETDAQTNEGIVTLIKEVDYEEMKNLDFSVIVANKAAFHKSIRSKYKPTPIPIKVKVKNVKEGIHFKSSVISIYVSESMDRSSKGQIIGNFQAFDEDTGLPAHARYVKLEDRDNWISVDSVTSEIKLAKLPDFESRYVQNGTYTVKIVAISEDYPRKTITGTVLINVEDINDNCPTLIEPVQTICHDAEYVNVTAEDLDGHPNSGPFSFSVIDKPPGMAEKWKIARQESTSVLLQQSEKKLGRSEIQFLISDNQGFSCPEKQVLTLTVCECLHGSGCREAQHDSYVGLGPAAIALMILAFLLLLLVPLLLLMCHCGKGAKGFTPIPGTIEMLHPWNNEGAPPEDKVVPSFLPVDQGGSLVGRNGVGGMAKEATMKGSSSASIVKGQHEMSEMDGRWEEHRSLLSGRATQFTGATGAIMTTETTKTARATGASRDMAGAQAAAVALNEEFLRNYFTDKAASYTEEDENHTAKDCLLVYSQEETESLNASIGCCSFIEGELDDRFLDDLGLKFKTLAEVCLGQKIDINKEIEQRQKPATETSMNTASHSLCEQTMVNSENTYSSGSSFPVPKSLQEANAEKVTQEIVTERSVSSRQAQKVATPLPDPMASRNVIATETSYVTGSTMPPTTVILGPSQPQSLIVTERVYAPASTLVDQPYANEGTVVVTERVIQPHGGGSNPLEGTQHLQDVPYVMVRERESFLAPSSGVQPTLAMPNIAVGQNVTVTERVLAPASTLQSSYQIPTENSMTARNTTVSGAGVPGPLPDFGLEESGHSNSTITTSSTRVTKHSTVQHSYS
Assay: attachment of 3H-labelled Ad3 virus (competitor) to HeLa cells pre-incubated with the dimeric knob
Exercise: state measured Inhibition of attachment in the presence of dimeric knob (JO-1 = 100%) for each of the binders provided.
Give bare numbers, in %.

Working through the 2 binders below one at a time, give Inhibition of attachment in the presence of dimeric knob (JO-1 = 100%) for each.
1. dimeric Ad3 fiber knob mutant D261N, L296R (designed binder, also called D261, L296R; combination of D261N and L296R) MKVSALKEKVSALKEKVSALKEKVSALKEKVSALKEGSGGGSGGGSGGGSNSIALKNNTLWTGPKPEANCIIEYGKQNPDSKLTLILVKNGGIVNGYVTLMGASDYVNTLFKNKNVSINVELYFDATGHILPDSSSLKTDLELKYKQTADFSARGFMPSTTAYPFVLPNAGTHNENYIFGQCYYKASNGALFPLEVTVMLNKRLPDSRTSYVMTFLWSLNAGRAPETTQATLITSPFTFSYIREDD
2. dimeric Ad3 fiber knob mutant V189G (designed binder) MKVSALKEKVSALKEKVSALKEKVSALKEKVSALKEGSGGGSGGGSGGGSNSIALKNNTLWTGPKPEANCIIEYGKQNPDSKLTLILVKNGGIVNGYVTLMGASDYVNTLFKNKNGSINVELYFDATGHILPDSSSLKTDLELKYKQTADFSARGFMPSTTAYPFVLPNAGTHNENYIFGQCYYKASDGALFPLEVTVMLNKRLPDSRTSYVMTFLWSLNAGLAPETTQATLITSPFTFSYIREDD

1. 20.1
2. 81
